# TEST_TARGET: hKv3.1b (Homo sapiens, UniProt P48547)
# Construct: expressed in transfected cells
# Sequence (P48547 1-585 isoform P48547-2): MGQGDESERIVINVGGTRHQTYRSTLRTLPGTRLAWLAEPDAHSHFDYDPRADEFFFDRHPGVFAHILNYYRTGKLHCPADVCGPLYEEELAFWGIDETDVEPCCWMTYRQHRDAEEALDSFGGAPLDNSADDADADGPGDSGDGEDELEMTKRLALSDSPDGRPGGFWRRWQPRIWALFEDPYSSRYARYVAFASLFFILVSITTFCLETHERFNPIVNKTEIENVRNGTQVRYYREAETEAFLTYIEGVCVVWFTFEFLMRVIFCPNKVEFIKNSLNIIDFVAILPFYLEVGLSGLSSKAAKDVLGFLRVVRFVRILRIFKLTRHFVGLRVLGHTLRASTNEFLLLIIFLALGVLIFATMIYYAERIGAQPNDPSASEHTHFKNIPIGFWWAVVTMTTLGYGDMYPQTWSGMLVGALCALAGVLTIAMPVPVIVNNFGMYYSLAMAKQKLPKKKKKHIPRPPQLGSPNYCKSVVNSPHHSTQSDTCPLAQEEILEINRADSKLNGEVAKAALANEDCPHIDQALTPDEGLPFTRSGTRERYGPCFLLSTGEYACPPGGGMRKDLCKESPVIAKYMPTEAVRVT
# TEST_METHOD_NOTES: Automated whole-cell patch-clamp (QPatch-16x) on HEK-293 cells stably expressing hKv3.1b: shift of voltage threshold for channel activation
# Assay type: cell-based
# RECORDED_CONDITIONS: maximum absolute shift of activation threshold to more hyperpolarized potentials at the tested concentrations (0.37, 1.11, 3.33, 10, 30 μM); HEK-293 hKv3.1b
READOUT_NAME: Max Delta threshold (mV)

Take a look at these entries with their results.
INSERT INTO assay_data (molecule_smiles, readout_name, value_unit, numeric_readout) VALUES
  ('COc1ccc(S(=O)(=O)n2ccc(C(=O)NCc3ncc(C)cn3)n2)cc1', 'Max Delta threshold', 'mV', 27),
  ('Cc1cnc(CNC(=O)c2ccn(S(=O)(=O)c3ccccc3C)n2)o1', 'Max Delta threshold', 'mV', 15),
  ('Cc1cnc(CNC(=O)c2ccn(S(=O)(=O)c3ccc(C(F)F)cc3)n2)cn1', 'Max Delta threshold', 'mV', 27);

[I] COc1ccc(S(=O)(=O)n2ccc(C(=O)NCc3cnccn3)n2)cc1
[II] Cc1cccc(S(=O)(=O)n2ccc(C(=O)NCc3ncc(C)o3)n2)c1
[III] COc1ccc(S(=O)(=O)n2ccc(C(=O)NCc3cnc(C)cn3)n2)c(F)c1
Ask | Arrange the 3 molecules by rising Max Delta threshold, starting with the smallest. Provide the labels, sequenced as the question asks.
Reply | II, I, III
